System: Vero E6
Assay: drug sensitivity score (DSS) for viability; higher = more toxic; extreme values may be limits of the assay
Details: 72 h
Measured Metric: drug sensitivity score
The answer should be written as a number, with no unit following it.

[
  {
    "Compound": "O=C(/C=C/c1cccnc1)NCCCCC1CCN(C(=O)c2ccccc2)CC1 [FK-866]",
    "Experimental Result": 29.4
  }
]

Endpoint output: drug sensitivity score of CCc1nn(CCCN2CCN(c3cccc(Cl)c3)CC2)c(=O)n1CCOc1ccccc1 [nefazodone] . Value? 0

Do the same for CC1(C)S[C@@H]2[C@H](NC(=O)COc3ccccc3)C(=O)N2[C@H]1C(=O)O [penicillin-v-potassium] please 0

Do the same for FC(F)(F)c1ccc(Nc2ncnc3cc(-c4ncccc4C(F)(F)F)ccc23)cc1 [MK-2295] please 0

Do the same for N[C@@H](C(=O)O)[C@@H](OCc1ccccc1)C(=O)O.N[C@H](C(=O)O)[C@H](OCc1ccccc1)C(=O)O [TBOA-(DL)] please 0

Do the same for CCn1c(N)c(C(=O)NC)c(=O)c2ccc(C#C[C@@](C)(O)COC)nc21 please 0

Do the same for CCCC[C@@]1(C2CCCC2)Cc2cc(OCCCC(=O)O)c(Cl)c(Cl)c2C1=O [DCPIB] please 0

Do the same for CCCCN(CCCC)CCCOC(=O)c1ccc(N)cc1 [butacaine] please 0

Do the same for Cc1cc(SCc2sc(-c3ccc(C(F)(F)F)c(F)c3)nc2C)ccc1OCC(=O)O [GW-0742] please 0

Do the same for CC(C)(C)c1cc(C(C)(C)C)c2c(c1)C(O)(C(F)(F)F)C(=O)O2 (racemic) [rac-BHFF] please 0

Do the same for N#Cc1ccc(Oc2ccc3c(c2)COB3O)cc1 [crisaborole] please 0

Do the same for CN1CCCCC1Cn1cc(C(=O)c2cc([N+](=O)[O-])ccc2I)c2ccccc21 (centres undefined) [AM-1241] please 0

Do the same for O=C1NC(=O)/C(=C/c2cccc(C(F)(F)F)c2)S1 [SMI-4a] please 0

Do the same for CCCCCCCCCCCCCCCC[N+](C)(C)C [cetrimonium] please 6.3

Do the same for O=C(N/N=C/c1ccc(O)c(O)c1)c1cc2ccccc2cc1O [dynasore] please 0

Do the same for Cc1cc(-c2ccc(/N=N/c3ccc4c(S(=O)(=O)O)cc(S(=O)(=O)O)c(N)c4c3O)c(C)c2)ccc1/N=N/c1ccc2c(S(=O)(=O)O)cc(S(=O)(=O)O)c(N)c2c1O [evans-blue] please 4.2

Do the same for COc1cccc2c1c(O)c(C(=O)N(C)c1ccc(C(F)(F)F)cc1)c(=O)n2C [tasquinimod] please 0

Do the same for Cc1cc(NC(=O)Nc2ccc(N(C)C)cc2)c2cc(F)cc(F)c2n1 please 0

Do the same for c1ccc2c(Cc3c[nH]c4ccccc34)c[nH]c2c1 [3,3'-diindolylmethane] please 0.1

Do the same for [O-][S+](c1ccccc1)c1ccc2nnnn2n1 (centres undefined) [Ro-106-9920] please 6.4

###

Test system: Caco-2
Assay: cell viability relative to DMSO; higher = less toxic
Conditions: 72 h; 1000 nM
Reported values of cell viability for individual entries
Lab book: enter the figure in %, no units written.

Endpoint output: cell viability of Cc1c(OCC(F)(F)F)ccnc1C[S+]([O-])c1nc2ccccc2[nH]1 (centres undefined) . Value? 97

Do the same for CC(C)SC(=N)N please 105

Do the same for O=S(=O)(c1ccccc1)c1cnc2c(N3CCNCC3)cccc2c1 please 94.8

Do the same for c1ccc2c(c1)CCCc1cc(NCCN3CCOCC3)nnc1-2 please 105

Do the same for CN1[C@@H]2CC[C@H]1C[C@@H](OC(=O)c1cc(Cl)cc(Cl)c1)C2 please 94.9

###

Reported values of drug sensitivity score for individual entries
System: Calu-3
Assay: drug sensitivity score (DSS) for viability; higher = more toxic; extreme values may be limits of the assay
Conditions: 72 h

Sample answers from the record:
[
  {
    "Compound": "[O-][S+](c1ccccc1)c1ccc2nnnn2n1 (stereo not given)",
    "drug sensitivity score": 1.9
  },
  {
    "Compound": "COc1ccc2[nH]cc(CCNC(C)=O)c2c1",
    "drug sensitivity score": 0
  },
  {
    "Compound": "CCN(CC)CC#CCOC(=O)C(O)(c1ccccc1)C1CCCCC1 (stereo not given)",
    "drug sensitivity score": 0
  }
]

Endpoint output: drug sensitivity score of C[C@@H](CN1CCC(Cc2ccccc2)CC1)[C@@H](O)c1ccc(O)cc1 . Value? 0

Do the same for C=CC(=O)Nc1cccc(Nc2nc(Nc3ccc(OCCOC)cc3)ncc2F)c1 please 4.4

Do the same for CCCN[C@H]1CCc2nc(N)sc2C1 [pramipexole] please 0

Do the same for CC(C)(C)NCC(O)c1cc(O)cc(O)c1 (stereo not given) [TERBUTALINE HEMISULFATE] please 0

Do the same for O=C(NCCO)c1cc(C(=O)NCCO)cc(C(=O)NCCO)c1 please 0

Do the same for CCCCN(CCCC)CCCOC(=O)c1ccc(N)cc1 please 0

Do the same for CC(C)Nc1nc2cc(Cl)c(Cl)cc2n1[C@H]1O[C@@H](CO)[C@H](O)[C@@H]1O please 0

###

System: HepG2
Assay: cell viability relative to DMSO; higher = less toxic
Settings: 72 h; 10000 nM
Structures can show the parent of a compound that is named as a salt.
Measured Metric: cell viability (%)
Lab book: enter the figure in %, no units written.

Sample answers from the record:
[
  {
    "Molecule": "Cc1cc(Nc2nc(N[C@@H](C)c3ccc(F)cc3)c(C#N)cc2F)n[nH]1",
    "Unit Abbreviation": "%",
    "cell viability": 33.6
  },
  {
    "Molecule": "CN[C@H](CC(C)C)C(=O)N[C@H]1C(=O)N[C@@H](CC(N)=O)C(=O)N[C@H]2C(=O)N[C@H]3C(=O)N[C@H](C(=O)N[C@H](C(=O)O)c4cc(O)cc(O)c4-c4cc3ccc4O)[C@H](O)c3ccc(c(Cl)c3)Oc3cc2cc(c3O[C@@H]2O[C@H](CO)[C@@H](O)[C@H](O)[C@H]2O[C@H]2C[C@](C)(N)[C@H](O)[C@H](C)O2)Oc2ccc(cc2Cl)[C@H]1O [VANCOMYCIN HYDROCHLORIDE]",
    "Unit Abbreviation": "%",
    "cell viability": 125
  },
  {
    "Molecule": "O=C1C=CC[C@@H]2[C@H]3CCCN4CCC[C@@H](CN12)[C@@H]34",
    "Unit Abbreviation": "%",
    "cell viability": 89.4
  },
  {
    "Molecule": "CC(C)(C)C(=O)OCOP(=O)(COCCn1cnc2c(N)ncnc21)OCOC(=O)C(C)(C)C",
    "Unit Abbreviation": "%",
    "cell viability": 25.2
  },
  {
    "Molecule": "CN(C)C(=O)Oc1ccc[n+](C)c1",
    "Unit Abbreviation": "%",
    "cell viability": 96.3
  }
]

Would you kindly look at the next entry?
Record lookup: for HepG2, what cell viability belongs to CC[C@@H]1C(=O)N(C)c2cnc(Nc3ccc(C(=O)NC4CCN(C)CC4)cc3OC)nc2N1C1CCCC1 ? 7.7

###

Reported values of cell viability for individual entries
System: U2OS
Experiment: cell viability relative to DMSO; higher = less toxic
Conditions: 72 h; 1 nM
Lab book: enter the figure in %, no units written.

Sample answers from the record:
[
  {
    "Compound": "O=C(O)/C=C\\c1c[nH]cn1 [cis-Urocanic acid]",
    "cell viability, %": 99.2
  },
  {
    "Compound": "C[N+](C)(C)CC[N+]1(C)Cc2c(Cl)c(Cl)c(Cl)c(Cl)c2C1 [chlorisondamine-diiodide]",
    "cell viability, %": 97.2
  },
  {
    "Compound": "O=C(O)Cn1c2c(c3cc(F)ccc31)CN(C(=O)c1cccc3ccccc13)CC2",
    "cell viability, %": 101
  }
]

Would you kindly look at the next entry?
Endpoint output: cell viability of C[C@@H]1CC[C@@]2(NC1)O[C@H]1C[C@H]3[C@@H]4CC=C5C[C@@H](O[C@@H]6O[C@H](CO)[C@@H](O[C@@H]7O[C@@H](C)[C@H](O)[C@@H](O)[C@H]7O)[C@H](O)[C@H]6O[C@@H]6O[C@@H](C)[C@H](O)[C@@H](O)[C@H]6O)CC[C@]5(C)[C@H]4CC[C@]3(C)[C@H]1[C@@H]2C . Value? 95.7

###

Reported values of relative viability EC50 for individual entries
Test system: HepG2
Assay: relative viability EC50 (midpoint between 100% and the lowest measured viability); higher = less toxic
Conditions: 72 h

Sample answers from the record:
[
  {
    "Molecule": "CCNC1(C(N)=O)CCN(c2ncnc3c2nc(-c2ccccc2Cl)n3-c2ccc(Cl)cc2)CC1",
    "Assay System": "HepG2",
    "Measured Metric": "relative viability EC50",
    "Experimental Result": "> 10 µM"
  },
  {
    "Molecule": "S=C(S)OC1CC2CC1C1CCCC21 (configuration not stated)",
    "Assay System": "HepG2",
    "Measured Metric": "relative viability EC50",
    "Experimental Result": "> 10 µM"
  }
]

Endpoint output: relative viability EC50 of C[C@@]1(F)[C@H](O)[C@@H](CO)O[C@H]1n1ccc(N)nc1=O . Value? > 10 µM

Do the same for Cc1cc(O)ccc1Cl please > 10 µM

Do the same for CC1(C)S[C@@H]2[C@H](NC(=O)COc3ccccc3)C(=O)N2[C@H]1C(=O)O please > 10 µM

Do the same for CC(=O)c1c(O)cc(C)oc1=O [dehydroacetic-acid] please > 10 µM

Do the same for CN1[C@@H]2CC[C@H]1C[C@@H](OC(=O)c1cc(Cl)cc(Cl)c1)C2 please > 10 µM

Do the same for Cc1cnc(Nc2ccc(OCCN3CCCC3)cc2)nc1Nc1cccc(S(=O)(=O)NC(C)(C)C)c1 please 1.32 µM

Do the same for O=c1c(O[C@@H]2O[C@H](CO)[C@H](O)[C@H](O)[C@H]2O)c(-c2ccc(O)c(O)c2)oc2cc(O)cc(O)c12 please > 10 µM
